I'd be grateful if you could share measured relative CpG methylation activity for these entries.
- target: DNMT3B catalytic domain (mouse)
- protocol-notes: relative CpG methylation activity (normalised to average over all NNNCGNNN flanks) (relative (1 = mean)); higher = more methylation of the central CpG
- assay-setup: system: in vitro, murine catalytic domain; CpG state: hemimethylated substrate pool; residues: 558-859
Over roughly 4,100 sequences, “relative CpG methylation activity (normalised to average over all NNNCGNNN flanks)” has its median near 0.94; the highest 2% begin near 1.9. The sample holds the highest values, similar sequences and a random draw of the others, so the mix is not that of the screen.
Provide a numeric answer; units are not to be included.

Sample "GTTCGATC" — what was its relative CpG methylation activity?
1.3

Can you handle "GTCCGATC" next?
1.77

Can you handle "CTCCGAGT" next?
1.99

Can you handle "TGCCGGGG" next?
0.469

Can you handle "TTCCGAAG" next?
1.32

Can you handle "GCTCGCCC" next?
0.844

Can you handle "TTTCGATA" next?
1.81

Can you handle "CTCCGAGA" next?
1.73

Can you handle "TTTCGATC" next?
1.95

Can you handle "TATCGGCC" next?
2.01

Can you handle "AGGCGATC" next?
1.05

Can you handle "TTCCGAGT" next?
1.83

Can you handle "ACGCGTTC" next?
0.658

Can you handle "TTCCGATC" next?
2.31

Can you handle "GACCGGGT" next?
1.03

Can you handle "ACACGATC" next?
1.75

Can you handle "GTTCGGAC" next?
1.37

Can you handle "TCTCGGCC" next?
1.96

Can you handle "GGCCGAGC" next?
1.53

Can you handle "ATCCGAGT" next?
1.37

Can you handle "CTCCGAGC" next?
2.06

Can you handle "CATCGATC" next?
1.81

----------
- target: DNMT3B catalytic domain (mouse) (UniProt O88509)
- Sequence (O88509 558-859): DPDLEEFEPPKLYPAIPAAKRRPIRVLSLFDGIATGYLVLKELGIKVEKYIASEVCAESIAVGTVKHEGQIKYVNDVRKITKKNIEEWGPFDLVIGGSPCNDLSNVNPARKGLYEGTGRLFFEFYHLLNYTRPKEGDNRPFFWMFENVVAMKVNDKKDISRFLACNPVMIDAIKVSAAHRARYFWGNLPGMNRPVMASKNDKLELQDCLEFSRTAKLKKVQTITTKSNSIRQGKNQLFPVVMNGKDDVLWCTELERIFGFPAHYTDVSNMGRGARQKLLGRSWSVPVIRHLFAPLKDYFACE
- protocol-notes: relative CpG methylation activity (normalised to average over all NNNCGNNN flanks) (relative (1 = mean)); higher = more methylation of the central CpG
- assay-setup: system: in vitro, murine catalytic domain; CpG state: hemimethylated substrate pool; residues: 558-859
Over roughly 4,100 sequences, “relative CpG methylation activity (normalised to average over all NNNCGNNN flanks)” has its median near 0.94; the highest 2% begin near 1.9. The sample holds the highest values, similar sequences and a random draw of the others, so the mix is not that of the screen.
measured-property: relative CpG methylation activity
Provide a numeric answer; units are not to be included.

Enter reported relative CpG methylation activity observed with DNMT3B catalytic domain (mouse) (UniProt O88509) for "ATACGGGC"
1.93

Can you handle "TATCGGAA" next?
0.708

Can you handle "CAACGGCC" next?
1.93

Can you handle "AAGCGTTC" next?
0.586

Can you handle "GTACGGGG" next?
1.6

Can you handle "CTACGCTA" next?
1.47

Can you handle "CTACGGCA" next?
2.23

Can you handle "ACACGATA" next?
1.75

Can you handle "TCACGAGT" next?
1.49

Can you handle "TCTCGAGA" next?
1.96

Can you handle "GAACGAGA" next?
1.76

Can you handle "CAACGATG" next?
1.43

Can you handle "ATACGGCA" next?
2.11

Can you handle "TATCGGCG" next?
1.79

Can you handle "AGTCGGCA" next?
2.11

Can you handle "CTACGAAG" next?
1.6

Can you handle "TTACGAAT" next?
1.76

Can you handle "AAACGAAA" next?
1.58

Can you handle "GACCGGCT" next?
1.19

Can you handle "CTACGGAA" next?
1.68

Can you handle "CAACGATC" next?
1.94

Can you handle "ATACGATC" next?
2.12

Can you handle "TTGCGAAG" next?
0.966

Can you handle "CTACGGGG" next?
1.9

Can you handle "CAGCGACC" next?
0.972

Can you handle "GATCGATC" next?
1.48

Can you handle "AACCGTCC" next?
0.606

Can you handle "TTACGCCG" next?
1.59

Can you handle "ATACGGGG" next?
1.61

Can you handle "ATACGGTA" next?
1.64

Can you handle "CTACGCTC" next?
1.91

Can you handle "CAACGGCT" next?
1.92

Can you handle "CAACGGCA" next?
1.74

Can you handle "GTCCGATG" next?
1.16

Can you handle "ATACGATT" next?
1.74

Can you handle "TAGCGGGG" next?
0.665

Can you handle "CAACGATA" next?
1.77

Can you handle "ATACGATG" next?
1.63

Can you handle "ATACGCCC" next?
1.69

Can you handle "CAACGAGC" next?
1.74

Can you handle "AGTCGATC" next?
1.7

Can you handle "ATACGGTG" next?
1.75

Can you handle "AATCGTTC" next?
0.607

Can you handle "GTACGATA" next?
1.73

Can you handle "CCACGGCA" next?
1.74

Can you handle "AAACGAGA" next?
1.9

Can you handle "ATTCGTTC" next?
0.876

Can you handle "ATTCGAGG" next?
1.29

Can you handle "CTACGAAT" next?
1.56

Can you handle "AAACGGCC" next?
1.76

Can you handle "AGCCGAAA" next?
0.798

Can you handle "TCTCGAGT" next?
1.45

Can you handle "AGACGGTA" next?
1.16

Can you handle "TATCGGAT" next?
1.18

Can you handle "ACACGGGC" next?
1.54

Can you handle "AATCGGCA" next?
1.74

Can you handle "TTACGGGG" next?
2

Can you handle "ATACGGCG" next?
2.11

Can you handle "GTTCGGGC" next?
1.53

Can you handle "TATCGGCA" next?
1.95

Can you handle "GTTCGTAC" next?
1.18

Can you handle "TCACGAGG" next?
1.7

Can you handle "ATACGGAG" next?
1.21

Can you handle "TGACGCCT" next?
1.11

Can you handle "CCCCGTTA" next?
0.69

Can you handle "ACTCGGCT" next?
1.95

Can you handle "TCTCGGCT" next?
1.8

Can you handle "CAACGAGT" next?
1.47

Can you handle "TTACGAAC" next?
1.96

Can you handle "TGGCGTGT" next?
0.0208

Can you handle "TTACGAAA" next?
1.78

Can you handle "ATACGGAA" next?
1.32

Can you handle "TTCCGAAT" next?
1.58

Can you handle "ACACGCTG" next?
1.11

Can you handle "CTACGATA" next?
1.97

Can you handle "CAACGGGG" next?
1.39

Can you handle "AATCGGCC" next?
1.88

Can you handle "GAACGGCC" next?
1.81

Can you handle "CATCGGCT" next?
1.78

Can you handle "CTACGACC" next?
1.82

Can you handle "AAACGGCT" next?
1.82

Can you handle "GTACGCGT" next?
1.4

Can you handle "CCTCGGAC" next?
1.14

Can you handle "TAACGAGA" next?
1.72

Can you handle "CAACGAGA" next?
1.94

Can you handle "ATACGATA" next?
2.03

Can you handle "GTGCGGGT" next?
1.3

Can you handle "TAGCGGTC" next?
1.12

Can you handle "CCTCGGCC" next?
1.66

Can you handle "GCTCGGGA" next?
1.17

Can you handle "CCACGATC" next?
1.74

Reference source: the supplement of paper PMC7335073
